Tested on: H1299 cells
testDetails: MTT cell viability, H1299
Format: cell-based
measurementSetup: Homo sapiens, NCI-H1299; H1299; MTT at 24 hours; Table 4; read-out: IC50 (μM) H1299
Hi! Just check whether IC50 is below 2 µM. Below gives T, equal or above gives F.

Solved cases below.
>  <compound>
O=C1c2ccccc2C(=O)c2oc(C(O)c3ccccc3)cc21 (stereo not drawn) [Compound 302]

>  <groupLabel>
F

$$$$
>  <compound>
O=Cc1cc2c(o1)C(=O)c1ccccc1C2=O [Compound 414]

>  <groupLabel>
F

$$$$
>  <compound>
CC(O)c1cc2c(o1)C(=O)c1ccccc1C2=O (stereo not drawn) [Compound 301]

>  <groupLabel>
T

$$$$
>  <compound>
CC(=O)c1cc2c(o1)C(=O)c1cc(Cl)ccc1C2=O [Compound 416]

>  <groupLabel>
T

$$$$
>  <compound>
COc1ccc(C(=O)c2cc3c(s2)C(=O)c2ccccc2C3=O)cc1 [Compound 407]

>  <groupLabel>
F

$$$$

Prompt: Find out if reported IC50 for O=C(c1ccccc1)c1cc2c(o1)C(=O)c1cc(Br)ccc1C2=O [Compound 415] is less than 2 µM
Response: F

Prompt: State whether 2 µM exceeds IC50 recorded for COc1ccc(C(=O)c2cc3c(o2)C(=O)c2ccccc2C3=O)cc1OC [Compound 413] .
Response: T

Prompt: Hello, I'm reviewing records and need to know if IC50 of CC(=O)c1cc2c(o1)C(=O)c1cc(F)ccc1C2=O [Compound 418] is below 2 µM. Could you check?
Response: T

Prompt: API: query returns whether the compound falls strictly under 2 µM in IC50. Query: O=C1c2ccccc2C(=O)c2oc(Cc3ccccc3)cc21 [Compound 103]
Response: F
